Target: Stb5 (UniProt P38699)
Sequence: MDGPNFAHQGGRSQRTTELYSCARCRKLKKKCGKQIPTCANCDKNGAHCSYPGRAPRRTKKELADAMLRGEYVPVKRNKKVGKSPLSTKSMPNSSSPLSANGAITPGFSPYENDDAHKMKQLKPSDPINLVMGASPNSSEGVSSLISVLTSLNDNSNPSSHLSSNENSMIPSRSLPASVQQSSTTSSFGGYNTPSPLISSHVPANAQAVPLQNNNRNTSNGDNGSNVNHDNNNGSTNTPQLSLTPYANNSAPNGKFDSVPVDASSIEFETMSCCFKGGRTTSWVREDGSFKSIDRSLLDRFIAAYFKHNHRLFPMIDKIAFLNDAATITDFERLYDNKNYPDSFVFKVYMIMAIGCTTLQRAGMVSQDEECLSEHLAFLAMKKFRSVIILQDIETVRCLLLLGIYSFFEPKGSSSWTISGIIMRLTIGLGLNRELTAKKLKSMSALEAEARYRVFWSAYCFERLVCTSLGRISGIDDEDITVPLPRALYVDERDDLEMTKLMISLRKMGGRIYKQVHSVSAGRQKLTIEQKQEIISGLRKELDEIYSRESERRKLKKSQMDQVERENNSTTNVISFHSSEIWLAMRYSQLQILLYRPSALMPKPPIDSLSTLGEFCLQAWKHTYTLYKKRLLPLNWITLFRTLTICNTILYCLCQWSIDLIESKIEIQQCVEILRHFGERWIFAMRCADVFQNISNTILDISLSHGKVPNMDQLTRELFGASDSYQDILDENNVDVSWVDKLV
Assay: PBM E-score (8-mer binding enrichment) (E-score (-0.5 to 0.5)); higher = stronger / more preferred TF binding
Conditions: protein concentration: 200 nM; construct: GST-full length
The full ranking holds about 33,000 sequences; the median of “E-score (-0.5 to 0.5)” is about -0.054, and the highest 2% start at about 0.35. The list comes from a sample in which the highest values are over-represented; it also holds close analogues and randomly drawn sequences.
RECORDED_ENDPOINT: PBM E-score
Number only, please.

Use these answered entries as a reference point.
>>> measured_value("CATCCCCG")
0.264
>>> measured_value("GAATCGAA")
-0.175
>>> measured_value("AACGACGT")
-0.0504
>>> measured_value("CGCATAAA")
-0.127
>>> measured_value("CCGACGGA")
0.394

Item: ACGACGCG | PBM E-score: -0.0646

The sequence GAGCTCAA showed PBM E-score equal to 0.0147

Entry under test: CACCGTCG . Its PBM E-score was 0.373
